Ref: patent US20140287989A1

- targetUnderTest: T1, E. coli β clamp (β subunit of DNA polymerase III, dnaN gene product), N-tagged (E. coli, UniProt P0A988 1-366)
- T1 construct: The dnaN gene was cloned in pET15b and expressed in BL21 E. coli; also called β ring; β protein; not shown: N-terminal tag from the pET15b vector (N-tagged protein, enriched on Ni-NTA)
- T1 sequence (P0A988 whole entry): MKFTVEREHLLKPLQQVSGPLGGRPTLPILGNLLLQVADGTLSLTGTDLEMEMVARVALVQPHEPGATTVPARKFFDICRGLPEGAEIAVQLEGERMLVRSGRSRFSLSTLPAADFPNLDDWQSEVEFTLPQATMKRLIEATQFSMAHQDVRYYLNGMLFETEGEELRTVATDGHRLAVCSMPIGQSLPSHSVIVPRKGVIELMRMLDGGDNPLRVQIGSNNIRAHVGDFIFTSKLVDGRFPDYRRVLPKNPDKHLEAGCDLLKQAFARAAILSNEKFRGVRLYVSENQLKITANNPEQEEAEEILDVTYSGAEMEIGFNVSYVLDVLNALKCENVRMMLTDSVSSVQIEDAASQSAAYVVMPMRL
- assayInfo: SPR direct binding: β protein (0.125 µM to 2 µM) injected on immobilised P1, 1:1 Langmuir model
measuredMetric: Kd (nM)
Hi! Could you send only the number? It should be in nM, unit omitted.

// query What value of Kd has been reported for the following binder? H-RQLVLGL-OH (Used free in solution as challenger and immobilised on the SPR chip; the way of immobilisation is not described; also called natural Cter heptamer; natural heptapeptide) [P1, natural C-terminal heptapeptide of E. coli DNA polymerase IV (RQLVLGL)]
// result 285
